tested on: BT-474; test: Antiproliferative activity against ER-positive human BT-474 cells overexpressing HER2 assessed as inhibition of cell proliferation measured after 72 hrs by MTT assay; assay type: functional, cell-based; details: BT-474, 72 h

| LINE NOTATION | IC50 (µM) |
| --- | --- |
| C/C1=C\[C@H](OC(=O)Nc2cc(C(F)(F)F)cc(C(F)(F)F)c2)C[C@](C)(O)/C=C/[C@H](C(C)C)CC/C(C)=C/CC1 | 3.9 |

###

tested on: MCF7; test: Antiproliferative activity against estrogen-dependent human MCF7 cells assessed as inhibition of cell proliferation measured after 72 hrs by MTT assay; type: functional, cell-based; settings: MCF7, 72 h
READOUT: IC50 (µM)

| LINE NOTATION | TARGET SYSTEM | READOUT | READOUT UNITS | OBSERVED RESULT |
| --- | --- | --- | --- | --- |
| C/C1=C\[C@H](OC(=O)Nc2cc(C(F)(F)F)cc(C(F)(F)F)c2)C[C@](C)(O)/C=C/[C@H](C(C)C)CC/C(C)=C/CC1 | MCF7 | IC50 | µM | 7.2 |

###

tested on: MDA-MB-231; experiment: cells; conditions: Homo sapiens, MDA-MB-231, 24 h
READOUT: IC50 (nM)

| LINE NOTATION | OBSERVED RESULT |
| --- | --- |
| C/C1=C\[C@H](OC(=O)Nc2cc(C(F)(F)F)cc(C(F)(F)F)c2)C[C@](C)(O)/C=C/[C@H](C(C)C)CC/C(C)=C/CC1 | 1700 |

###

target: Hepatocyte growth factor receptor (Homo sapiens, UniProt P08581)
Sequence (P08581 whole entry): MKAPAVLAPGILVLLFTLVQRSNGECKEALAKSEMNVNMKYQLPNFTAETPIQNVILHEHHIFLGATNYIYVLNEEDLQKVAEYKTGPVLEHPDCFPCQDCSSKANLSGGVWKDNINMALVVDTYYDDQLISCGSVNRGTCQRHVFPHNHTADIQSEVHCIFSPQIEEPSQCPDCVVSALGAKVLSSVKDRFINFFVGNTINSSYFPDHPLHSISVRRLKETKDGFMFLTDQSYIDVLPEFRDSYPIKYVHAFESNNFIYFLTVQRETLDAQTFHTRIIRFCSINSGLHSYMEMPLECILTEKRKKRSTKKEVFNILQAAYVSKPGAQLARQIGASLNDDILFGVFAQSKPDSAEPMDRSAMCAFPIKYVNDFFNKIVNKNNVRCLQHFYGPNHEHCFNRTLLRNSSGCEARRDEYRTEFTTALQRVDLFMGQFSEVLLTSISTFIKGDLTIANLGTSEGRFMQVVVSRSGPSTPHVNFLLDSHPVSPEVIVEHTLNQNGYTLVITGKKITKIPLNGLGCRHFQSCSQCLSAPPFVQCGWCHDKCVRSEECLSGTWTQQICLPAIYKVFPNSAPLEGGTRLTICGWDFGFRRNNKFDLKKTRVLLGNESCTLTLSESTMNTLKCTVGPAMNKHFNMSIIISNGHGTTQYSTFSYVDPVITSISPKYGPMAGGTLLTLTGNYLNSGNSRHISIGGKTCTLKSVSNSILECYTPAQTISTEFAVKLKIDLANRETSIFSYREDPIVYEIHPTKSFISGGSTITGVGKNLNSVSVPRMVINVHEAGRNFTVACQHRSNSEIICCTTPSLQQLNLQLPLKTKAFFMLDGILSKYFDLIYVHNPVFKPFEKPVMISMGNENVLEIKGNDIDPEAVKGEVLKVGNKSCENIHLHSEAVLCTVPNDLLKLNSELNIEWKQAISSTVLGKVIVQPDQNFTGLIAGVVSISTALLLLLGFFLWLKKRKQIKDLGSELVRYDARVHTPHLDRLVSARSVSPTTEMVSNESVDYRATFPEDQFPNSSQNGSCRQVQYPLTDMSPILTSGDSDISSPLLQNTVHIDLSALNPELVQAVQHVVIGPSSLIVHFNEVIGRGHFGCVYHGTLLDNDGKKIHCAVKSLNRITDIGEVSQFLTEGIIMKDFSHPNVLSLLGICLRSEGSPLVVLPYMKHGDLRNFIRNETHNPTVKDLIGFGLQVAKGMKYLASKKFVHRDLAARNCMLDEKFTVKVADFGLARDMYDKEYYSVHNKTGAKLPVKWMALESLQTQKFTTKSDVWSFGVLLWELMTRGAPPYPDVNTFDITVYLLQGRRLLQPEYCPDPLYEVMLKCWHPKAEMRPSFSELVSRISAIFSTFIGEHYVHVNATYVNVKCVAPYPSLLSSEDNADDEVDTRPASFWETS
READOUT: IC50 (µM)

| LINE NOTATION | OBSERVED RESULT |
| --- | --- |
| C/C1=C\[C@H](OC(=O)Nc2cc(C(F)(F)F)cc(C(F)(F)F)c2)C[C@](C)(O)/C=C/[C@H](C(C)C)CC/C(C)=C/CC1 | 1.1 |
